- experimental.details: Binding affinity to F10T duplex DNA (unknown origin) assessed as change in melting temperature at 2 uM by FRET assay
readout.kind: ΔTm (°C)

// below: answered compounds
> print(dat)
                               smiles.entry  observed.result
1  COc1cc2c(cc1OC)-c1nc3ccccc3c(C(=O)NCCN3CCCC3)c1CC2              0.6
2  COc1cc2c(cc1OC)-c1c(cc3c(OCCCN4CCCCC4)c(OC)ccc3[n+]1C)CC2              0.7
3  COc1cc2c(cc1OC)-c1c(c(NCCN(C)C)c3ccccc3[n+]1C)CC2              0.3
4  CCN(CC)CCCNc1c2c([n+](C)c3ccccc13)-c1cc(OC)c(OC)cc1CC2              0.4
5  COc1cc2c(cc1OC)-c1nc3ccccc3c(NCCN3CCCC3)c1CC2              1.2

P: COc1cc2c(cc1OC)-c1c(c(NCCN3CCCC3)c3ccccc3[n+]1C)CC2
Q: COc1cc2c(cc1OC)-c1nc3ccccc3c(NCCN(C)C)c1CC2
Which gives the smaller ΔTm number: P or Q ? Let me know the label of the one you choose.
P

P: COc1cc2c(cc1OC)-c1c(c(NCCCN(C)C)c3ccccc3[n+]1C)CC2
Q: COc1cc2c(cc1OC)-c1nc3ccccc3c(NCCCN3CCCC3)c1CC2
I need your help: which of the pair P , Q has higher ΔTm? To answer, give the label that identifies your chosen option.
Q
(Q: 2.9 °C, P: 0.3 °C)

----------
- experimental.details: Binding affinity to F10T duplex DNA (unknown origin) assessed as change in melting temperature at 2 uM by FRET assay
readout.kind: ΔTm (°C)

> print(dat)
                               smiles.entry  readout.kind  unit.spec  observed.result
1  COc1cc2c(cc1OC)-c1nc3ccccc3c(NCCCN(C)C)c1CC2           ΔTm         °C              2.3
2  COc1cc2c(cc1OC)-c1nc3ccccc3c(NCCCN3CCCCC3)c1CC2           ΔTm         °C              2.1
3  COc1cc2c(cc1OC)-c1nc3ccccc3c(NCCN3CCN(C)CC3)c1CC2           ΔTm         °C                2

A: CCN(CC)CCCNc1c2c(nc3ccccc13)-c1cc(OC)c(OC)cc1CC2
B: CCN(CC)CCNc1c2c([n+](C)c3ccccc13)-c1cc(OC)c(OC)cc1CC2
# return whichever of A and B has the smaller ΔTm Pick one and reply with its label.
B

----------
- experimental.details: Binding affinity to biotinylated c-KIT1 G-quadruplex DNA (unknown origin) by SPR assay
readout.kind: Kd (µM)

Please review the following examples before continuing.
> print(dat)
                               smiles.entry  unit.spec  observed.result
1  COc1cc2c(cc1OC)-c1nc3ccccc3c(NCCCN3CCN(C)CC3)c1CC2         µM              2.8
2  CCN(CC)CCCNc1c2c([n+](C)c3ccccc13)-c1cc(OC)c(OC)cc1CC2         µM              7.4
3  COc1cc2c(cc1OC)-c1nc3ccccc3c(NCCCN3CCCC3)c1CC2         µM              2.9
4  COc1cc2c(cc1OC)-c1nc3ccccc3c(NCCN3CCCCC3)c1CC2         µM              7.8
5  COc1cc2c(cc1OC)-c1nc3ccccc3c(NCCN(C)C)c1CC2         µM              4.2

a: COc1cc2c(cc1OC)-c1c(cc3c(OCCCN4CCCCC4)c(OC)ccc3[n+]1C)CC2
b: COc1cc2c(cc1OC)-c1c(c(NCCCN(C)C)c3ccccc3[n+]1C)CC2
For the pair a and b , which entry has the numerically smaller recorded Kd? Pick one and reply with its label.
a

P: CCN(CC)CCNc1c2c([n+](C)c3ccccc13)-c1cc(OC)c(OC)cc1CC2
Q: COc1cc2c(cc1OC)-c1nc3ccccc3c(NCCN3CCCC3)c1CC2
# compare Kd for P vs Q ; return the one with the smaller value Pick one; state its label.
Q
(Q: 2.5 µM, P: 3.9 µM)

1: CCN(CC)CCCNc1c2c(nc3ccccc13)-c1cc(OC)c(OC)cc1CC2
2: CCN(CC)CCNc1c2c(nc3ccccc13)-c1cc(OC)c(OC)cc1CC2
# argmax over Kd for candidates 1 and 2 Answer by quoting the chosen item's label.
1

----------
- experimental.details: Binding affinity to F10T duplex DNA (unknown origin) assessed as change in melting temperature at 1 uM by FRET assay
readout.kind: ΔTm (°C)

// worked examples, ΔTm included
> print(dat)
                               smiles.entry  unit.spec  observed.result
1  COc1cc2c(cc1OC)-c1nc3ccccc3c(NCCN3CCCCC3)c1CC2         °C              0.1
2  CCN(CC)CCCNC(=O)c1c2c(nc3ccccc13)-c1cc(OC)c(OC)cc1CC2         °C              0.5
3  COc1cc2c(cc1OC)-c1nc3ccccc3c(NCCN3CCCC3)c1CC2         °C              0.8
4  COc1cc2c(cc1OC)-c1nc3ccccc3c(NCCCN3CCN(C)CC3)c1CC2         °C              1.3
5  COc1cc2c(cc1OC)-c1nc3ccccc3c(NCCCN3CCCCC3)c1CC2         °C              1.4
6  COc1cc2c(cc1OC)-c1nc3ccccc3c(C(=O)NCCN3CCCC3)c1CC2         °C              0.1

a: COc1cc2c(cc1OC)-c1nc3ccccc3c(C(=O)NCCCN3CCCCC3)c1CC2
b: COc1cc2c(cc1OC)-c1nc3ccccc3c(NCCN(C)C)c1CC2
c: COc1cc2c(cc1OC)-c1nc3ccccc3c(NCCN3CCN(C)CC3)c1CC2
Would you mind ranking these compounds by ascending ΔTm? Put the labels in the requested order and write them down.
a, b, c

----------
// pKd lookup, one value per entry
- experimental.details: Binding affinity to biotinylated duplex DNA (unknown origin) by SPR assay
pKd: −log10 of the molar value.

# annotated cases, reported pKd shown
> print(dat)
                               smiles.entry  readout.kind  observed.result
1  COc1cc2c(cc1OC)-c1c(c(NCCCN3CCCC3)c3ccccc3[n+]1C)CC2           pKd           < 4.70
2  CCN(CC)CCCNC(=O)c1c2c(nc3ccccc13)-c1cc(OC)c(OC)cc1CC2           pKd           < 4.70
3  CCN(CC)CCCNc1c2c([n+](C)c3ccccc13)-c1cc(OC)c(OC)cc1CC2           pKd           < 4.70
4  COc1cc2c(cc1OC)-c1c(cc3c(OCCCN4CCCCC4)c(OC)ccc3[n+]1C)CC2           pKd           < 4.70
5  COc1cc2c(cc1OC)-c1nc3ccccc3c(NCCCN3CCN(C)CC3)c1CC2           pKd           < 4.70

Item: `COc1cc2c(cc1OC)-c1nc3ccccc3c(NCCCN(C)C)c1CC2` | pKd: < 4.70

Measured pKd of `COc1cc2c(cc1OC)-c1nc3ccccc3c(NCCN3CCCC3)c1CC2` : 5.11

For reference, reported pKd for `COc1cc2c(cc1OC)-c1nc3ccccc3c(NCCN3CCCCC3)c1CC2` stands at < 4.70

The measured pKd associated with `COc1cc2c(cc1OC)-c1nc3ccccc3c(NCCCN3CCCCC3)c1CC2` reads < 4.70

Record summary for `COc1cc2c(cc1OC)-c1c(c(NCCN3CCCC3)c3ccccc3[n+]1C)CC2` : reported pKd = < 4.70

----------
- experimental.details: Binding affinity to 5'-FAM labelled duplex DNA (unknown origin) by microscale thermophoresis
readout.kind: pKd
To interpret pKd, take it as minus log10 of a concentration measured in moles per litre.

pKd recorded for this compound, `CCN(CC)CCCNc1c2c(nc3ccccc13)-c1cc(OC)c(OC)cc1CC2` , is 4.98

----------
- experimental.details: Binding affinity to F10T duplex DNA (unknown origin) assessed as change in melting temperature at 2 uM by FRET assay
readout.kind: ΔTm (°C)

> print(dat)
                               smiles.entry  unit.spec  observed.result
1  CCN(CC)CCNc1c2c(nc3ccccc13)-c1cc(OC)c(OC)cc1CC2         °C              0.9
2     COc1cc2c(cc1OC)-c1nc3ccccc3c(Cl)c1CC2         °C              0.1
3  CCN(CC)CCCNC(=O)c1c2c(nc3ccccc13)-c1cc(OC)c(OC)cc1CC2         °C              0.5
4  COc1cc2c(cc1OC)-c1nc3ccccc3c(NCCCN3CCN(C)CC3)c1CC2         °C              1.6

a: COc1cc2c(cc1OC)-c1c(c(NCCCN3CCCC3)c3ccccc3[n+]1C)CC2
b: COc1cc2c(cc1OC)-c1nc3ccccc3c(C(=O)NCCCN3CCCCC3)c1CC2
Which entry shows the lesser value of ΔTm here, a or b ? Bench note: the answer is the label of the chosen record.
a
(a: 0.3 °C, b: 0.6 °C)
